Here we gather pIC50 data for Receptor-type tyrosine-protein kinase FLT3 (Homo sapiens) reported by several publications.
pIC50: −log10 of the molar value.

// solved cases for pIC50 follow
structure	result
CC1(Nc2ncc3c(OC4CCOCC4)ncc(-c4cccc(NS(C)(=O)=O)c4)c3n2)CC1	5.00 to 6.00
COc1ccc(C(=O)NC(=O)Nc2ccc3c(c2)NC(=O)/C3=C\c2[nH]c(C)c(CCC(=O)O)c2C)c(F)c1	8.00
COc1cc(C2=C(c3cn(CCN(C)C)c4ccccc34)C(=O)NC2=O)cc(OC)c1OC	< 6.00
COc1ccc2cc1COC/C=C/COCc1cc(ccc1OCCN1CCCC1)Nc1nccc-2n1	≥ 6.00
CC(C)(C)OC(=O)Nc1ccc(-c2cc(/C=C/c3ccccc3)n[nH]2)cc1	5.30 to 6.30

Enter measured pIC50, system Receptor-type tyrosine-protein kinase FLT3 (Homo sapiens), for the molecule shown: `Cc1nnc(C(C)(C)n2cc(-c3cc([C@H]4CC[C@H](O)CC4)n4nc(N[C@@H](C)COC(F)F)ncc34)cn2)o1` 5.00 to 6.00

State measured pIC50 of the molecule `COC(=O)N[C@H]1C[C@@H](Oc2ncc([C@H]3CC[C@H](O)CC3)c3nc(N[C@@H](C)CC(F)(F)F)ncc23)C1` with Receptor-type tyrosine-protein kinase FLT3 (Homo sapiens). ≥ 7.00

# assay system Receptor-type tyrosine-protein kinase FLT3 (Homo sapiens): give pIC50 of `CC[C@H](C)Nc1ncc2c(C3=CCOCC3)cc([C@H]3CC[C@H](O)CC3)n2n1` ≥ 7.00

Return reported pIC50 for target or system Receptor-type tyrosine-protein kinase FLT3 (Homo sapiens), item `COC[C@H](C)Nc1ncc2c(-c3ccnc(OC4CCN(C)CC4)c3)cc([C@H]3CC[C@H](O)CC3)n2n1` . 6.00 to 7.00

Fill: pIC50 (Receptor-type tyrosine-protein kinase FLT3 (Homo sapiens)) for this molecule `Cc1[nH]c(/C=C2\C(=O)Nc3cc(NC(=O)c4c[nH]cc(-c5ccc(F)cc5)c4=O)ccc32)c(C)c1C(=O)O` 8.54
